Values compiled from patent US12332244B2.

assay: Brain distribution after oral or intravenous administration to normal mice; assay type: in vivo, mouse; settings: mouse, brain, oral administration 10 mg/kg, FIG. 4C
MEASURED ENDPOINT: Kp
// print number alone

Entry CCCCCCCCCCCCC/C=C/[C@@H](O)[C@H](CO)NC(C)=O needs its Kp filled in; supply it.
3.18

###

assay: Brain distribution after oral or intravenous administration to normal mice; type: in vivo, mouse; details: mouse, brain, intravenous, tail vein administration 1 mg/kg, FIG. 4C
MEASURED ENDPOINT: Kp
// print number alone

Entry CCCCCCCCCCCCC/C=C/[C@@H](O)[C@H](CO)NC(C)=O [N-AS, N-acetyl sphingosine] needs its Kp filled in; supply it.
2.16
